# experimentalProtocol: NCI Yeast Anticancer Drug Screen. Data for the mec2-1 strain (AID 157)
# conditionDetails: S. cerevisiae mec2-1 strain, at 50.0 µM, hits give high values
This is part of a sample that, as a whole, favours compounds with a hit. Of some 79,000 tested, about 15% had one in any assay.
Measured growth inhibition values are reported for all entries that follow.
A number alone suffices; assume %.

# count of solved cases: 3
molecule	measurementKind	assayResult
COc1ccc(C2CCCCCC2OS(=O)(=O)c2ccc(C)cc2)c(OC)c1OC (stereo not given)	growth inhibition	-4.55
NS(=O)(=O)c1ccc(Nc2c3ccccc3nc3c(C(=O)NCCO)cccc23)cc1	growth inhibition	-30.2
NC1=NC(=O)C(CC(=O)Nc2ccc(Cl)cc2Cl)S1 (stereo not given)	growth inhibition	-17.6

Sample O=C(Nc1ccccc1)Nc1cc(C(F)(F)F)ccc1Cl ; growth inhibition observed: 18.6

Sample CCOC(=O)c1ccc(NC(=S)NC(=O)c2cccc([N+](=O)[O-])c2)cc1 ; growth inhibition observed: 6.55

Sample CCC1(c2ccccc2)Nc2ccccc2C1=Nc1ccccc1 (stereo not given) ; growth inhibition observed: 15.5
